Provenance of the data: patent US20250145665A1

Target: TNFα (Homo sapiens, UniProt P01375)
Sequence (P01375 77-233 limits assumed): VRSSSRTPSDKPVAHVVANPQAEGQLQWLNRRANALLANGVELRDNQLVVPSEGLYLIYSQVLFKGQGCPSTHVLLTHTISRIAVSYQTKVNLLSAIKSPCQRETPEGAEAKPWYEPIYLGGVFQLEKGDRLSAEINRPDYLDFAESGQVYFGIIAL
Assay: TNF-Induced HEK-Blue Assay
Type: cell-based
Conditions: HEK-Blue-CD40L cells, NF-kB-driven secreted alkaline phosphatase reporter; TNFα 0.5 ng/ml; 18 h; read-out: TNF induced HEK-Blue assay IC50 value
pIC50: −log10 of the molar value. Positions of bridges follow the written chain, without caps; N, C: chain ends. Non-standard residues stand in square brackets, D forms with d. Residues, ends and D or L forms follow the SMILES beside them. Bip = N[C@@H](Cc1ccc(-c2ccccc2)cc1)C(=O)O; Phe(4-F) = N[C@@H](Cc1ccc(F)cc1)C(=O)O; Val(3-OH) = CC(C)(O)[C@H](N)C(=O)O; Sar = CNCC(=O)O
METRIC NAME: pIC50

Exam item: Answer with reported pIC50 of CC(C)C[C@@H]1NC(=O)[C@H](CCCNC(=N)N)NC(=O)[C@H](C(C)C)NC(=O)[C@@H]2CCCN2C(=O)[C@H](Cc2ccc(F)cc2)NC(=O)[C@H](CCCNC(=N)N)NC(=O)[C@H](CC(=O)O)NC(=O)[C@@H]2CCCN2C(=O)CN(C)C(=O)[C@H](Cc2ccc(-c3ccccc3)cc2)NC(=O)[C@H](Cc2ccc(-c3ccccc3)cc2)NC(=O)[C@H](C(C)(C)O)NC(=O)CSC[C@@H](C(=O)NCC(N)=O)NC1=O [Example 58] ({CH2CO}-[Val(3-OH)][Bip][Bip][Sar]PDR[Phe(4-F)]PVRLCG-NH2; thioether N-13)
Marked response: 6.70 to 7.30
